- assayTarget: Dihydroorotate dehydrogenase (quinone), mitochondrial (Plasmodium falciparum (isolate 3D7), UniProt Q08210)
- Sequence (Q08210 whole entry): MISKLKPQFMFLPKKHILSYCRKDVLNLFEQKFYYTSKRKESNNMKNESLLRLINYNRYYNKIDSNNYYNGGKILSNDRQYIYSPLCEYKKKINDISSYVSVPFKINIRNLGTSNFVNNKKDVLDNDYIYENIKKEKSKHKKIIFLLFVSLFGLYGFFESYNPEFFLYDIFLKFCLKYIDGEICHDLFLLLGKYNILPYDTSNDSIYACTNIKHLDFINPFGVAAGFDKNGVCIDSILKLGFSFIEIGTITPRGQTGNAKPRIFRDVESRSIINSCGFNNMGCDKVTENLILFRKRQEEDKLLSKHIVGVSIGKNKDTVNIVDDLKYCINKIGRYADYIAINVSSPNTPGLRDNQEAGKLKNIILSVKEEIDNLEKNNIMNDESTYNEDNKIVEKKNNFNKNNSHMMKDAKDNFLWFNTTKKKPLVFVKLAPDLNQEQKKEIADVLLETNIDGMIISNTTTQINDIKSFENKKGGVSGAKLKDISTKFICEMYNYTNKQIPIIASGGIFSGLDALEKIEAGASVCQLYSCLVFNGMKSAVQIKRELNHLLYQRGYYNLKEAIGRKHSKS
- runDescription: DHODH Biochemical Assay
valueType: IC50 (µM)
Answer in µM, number only, no unit symbol.

Use the examples below as a reference point.
molecule	IC50 / µM
CCSc1nnc(C2CCCN(CC(=O)Nc3cc(C(F)(F)F)ccc3Cl)C2)n1CC (centres undefined)	1.7
Cc1nc2c(C#N)cccc2n1-c1ccc(C(=O)NC2CC2)s1	0.08
CCOc1cccc(=O)c2c(C)n(Cc3ccc(Cl)cc3)c(C)c12	13.5

Proceeding to the next molecule to report its IC50.
Memo: Cc1nnc2c3ccccc3c(N3CCc4ccccc4C3)nn12 , reported IC50: 3.5

###

In this section, each of the compounds is paired with its reported IC50.
- assayTarget: Dihydroorotate dehydrogenase (quinone), mitochondrial (Homo sapiens, UniProt Q02127)
- Sequence (Q02127 whole entry): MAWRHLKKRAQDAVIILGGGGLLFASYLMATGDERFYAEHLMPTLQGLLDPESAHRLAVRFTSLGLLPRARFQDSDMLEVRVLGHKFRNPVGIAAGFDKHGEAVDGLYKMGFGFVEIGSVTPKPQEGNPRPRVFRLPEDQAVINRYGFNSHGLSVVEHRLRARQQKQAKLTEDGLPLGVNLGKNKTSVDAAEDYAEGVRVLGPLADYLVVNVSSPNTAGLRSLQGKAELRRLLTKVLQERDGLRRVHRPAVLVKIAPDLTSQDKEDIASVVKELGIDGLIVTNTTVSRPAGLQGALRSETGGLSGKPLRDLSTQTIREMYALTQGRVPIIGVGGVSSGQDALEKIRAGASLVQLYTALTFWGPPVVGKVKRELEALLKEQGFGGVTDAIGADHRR

compound	IC50
CCSc1nnc(C2CCCN(CC(=O)Nc3cc(C(F)(F)F)ccc3Cl)C2)n1CC (stereo not drawn)	> 30 µM

The reported IC50 value, Dihydroorotate dehydrogenase (quinone), mitochondrial (Homo sapiens, UniProt Q02127), for Cc1nc2c(C#N)cccc2n1-c1ccc(C(=O)NC2CC2)s1 reads > 30 µM

The reported IC50 value, Dihydroorotate dehydrogenase (quinone), mitochondrial (Homo sapiens, UniProt Q02127), for CCOc1cccc(=O)c2c(C)n(Cc3ccc(Cl)cc3)c(C)c12 reads > 30 µM
